abundance fitness values by entry
B1: Homeobox protein cut-like 1, residues 941 to 1008; numbered along this chain, P39880 (parent)
chain: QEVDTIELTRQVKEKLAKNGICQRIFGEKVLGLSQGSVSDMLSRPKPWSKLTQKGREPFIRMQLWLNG

variants of: B1; assay: abundance fitness (aPCA) (normalised: wild type 0, dead -1); higher = more abundant; growth selection in yeast, the domain comes from the species named; conditions: Homo sapiens
Respond using a number only.

Answered cases to consult:
RESIDUE CHANGE: V38Y
TEST RESULT: 0.027

RESIDUE CHANGE: Q1C
TEST RESULT: -0.062

RESIDUE CHANGE: I25G
TEST RESULT: -0.225

RESIDUE CHANGE: S39F
TEST RESULT: -0.156

RESIDUE CHANGE: T5W
TEST RESULT: -0.176

Exercise: Given the entry P45Q , report its measured abundance fitness.
Key: -0.461

Exercise: Cool, now C22R
Key: -0.16
